- measurement-description: Half life at a dose of 10 mg/kg peroral administration in mice.
- Assay type: ADME, organism-based
- Parameters: dose 10 mg/kg, route oral
- measurement-parameters: mouse, in vivo, po
readout-type: half-life

Query string: Need half-life of CC(C)(C)c1cnc(CSc2cnc(NC(=O)Cc3ccc(CNC(CO)CO)cc3)s2)o1 , thanks.
Result string: 1.4 h

----------
- System: A2780
- measurement-description: Inhibition of A2780 / DDP-S human ovarian carcinoma cell proliferation
- Format: functional, cell-based
readout-type: pIC50
On this scale, pIC50 is minus log10 of a concentration expressed in M (mol/L).

# smiles-representation, tested-system, pIC50
records = [
    ("CCc1cnc(CSc2cnc(NC(C)=O)s2)o1", "A2780", 5.98),
]

Here is the next item to consider.
Query string: Need pIC50 of CN1CC[C@H](c2c(O)cc(O)c3c(=O)cc(-c4ccccc4Cl)oc23)[C@H](O)C1 , thanks.
Result string: 7.25

----------
- tested-system: Cyclin-dependent kinase 2/cyclin E (Homo sapiens)
- measurement-description: Inhibitory activity against baculovirus expressed Cyclin dependent kinase 2-cyclinE
pIC50: −log10 of the molar value.
Mark not satisfied for pIC50 values under 7, and satisfied for everything at or above.

# compound, assigned-label
records = [
    ("CCOC(=O)CCCCCSc1cnc(NC(C)=O)s1", "not satisfied"),
    ("CC(=O)Nc1ncc(SCc2ccccn2)s1", "not satisfied"),
]

Query string: Could you please find out whether CC(=O)Nc1cnc(SCc2ncc(C(C)(C)C)o2)s1 has pIC50 that meets 7 or exceeds it?
Result string: not satisfied

Query string: Could you please find out whether CC(C)C(=O)Nc1ncc(S(=O)(=O)Cc2ncc(C(C)(C)C)o2)s1 has pIC50 that meets 7 or exceeds it?
Result string: not satisfied

Query string: Could you please find out whether CCOC(=O)CSc1cnc(NC(C)=O)s1 has pIC50 that meets 7 or exceeds it?
Result string: not satisfied

Query string: Could you please find out whether CCC(CC)CSc1cnc(NC(C)=O)s1 has pIC50 that meets 7 or exceeds it?
Result string: not satisfied

Query string: Could you please find out whether CC(=O)Nc1ncc(SCc2nc(C)c(C)o2)s1 has pIC50 that meets 7 or exceeds it?
Result string: not satisfied

Query string: Could you please find out whether CC(C)(C)c1cnc(CSc2cnc(NC(=O)Nc3c(Cl)cccc3Cl)s2)o1 has pIC50 that meets 7 or exceeds it?
Result string: satisfied

Query string: Could you please find out whether CC(C)OC(=O)Nc1ncc(SCc2ncc(C(C)(C)C)o2)s1 has pIC50 that meets 7 or exceeds it?
Result string: satisfied

Query string: Could you please find out whether CC(=O)Nc1ncc(SCc2c(C)noc2C)s1 has pIC50 that meets 7 or exceeds it?
Result string: not satisfied

Query string: Could you please find out whether CC(=O)Nc1nnc(SCC(=O)OC(C)(C)C)s1 has pIC50 that meets 7 or exceeds it?
Result string: not satisfied

Query string: Could you please find out whether CC(=O)Nc1ncc(SCCOC(C)(C)C)s1 has pIC50 that meets 7 or exceeds it?
Result string: not satisfied

Query string: Could you please find out whether CC(C)C(=O)Nc1ncc(SCc2ncc(C(C)(C)C)o2)s1 has pIC50 that meets 7 or exceeds it?
Result string: satisfied

Query string: Could you please find out whether CC(C)(C)c1cnc(CSc2cnc(NS(=O)(=O)c3ccccc3)s2)o1 has pIC50 that meets 7 or exceeds it?
Result string: not satisfied

Query string: Could you please find out whether CC(C)C(=O)N(C)c1ncc(SCc2ncc(C(C)(C)C)o2)s1 has pIC50 that meets 7 or exceeds it?
Result string: not satisfied

Query string: Could you please find out whether CC(C)(C)c1cnc(CSc2cnc(NC(=O)Nc3ccc(F)cc3)s2)o1 has pIC50 that meets 7 or exceeds it?
Result string: satisfied

Query string: Could you please find out whether CCNC(=O)Nc1ncc(SCc2ncc(C(C)(C)C)o2)s1 has pIC50 that meets 7 or exceeds it?
Result string: satisfied

Query string: Could you please find out whether CC(=O)Nc1ncc(SCC(O)CC(C)(C)C)s1 (stereo not given) has pIC50 that meets 7 or exceeds it?
Result string: not satisfied

Query string: Could you please find out whether COCCSc1cnc(NC(C)=O)s1 has pIC50 that meets 7 or exceeds it?
Result string: not satisfied

Query string: Could you please find out whether CC(=O)Nc1ncc(SCc2nnsc2Cl)s1 has pIC50 that meets 7 or exceeds it?
Result string: not satisfied

Query string: Could you please find out whether CC(=O)Nc1nc(CSc2cnc(NC(C)=O)s2)cs1 has pIC50 that meets 7 or exceeds it?
Result string: not satisfied

Query string: Could you please find out whether CC(=O)Nc1ncc(SCc2ncc(-c3ccccc3)o2)s1 has pIC50 that meets 7 or exceeds it?
Result string: not satisfied

Query string: Could you please find out whether CC(=O)Nc1ncc(SCc2ncc(C(C)C)o2)s1 has pIC50 that meets 7 or exceeds it?
Result string: satisfied

Query string: Could you please find out whether C[C@H](C(=O)Nc1ncc(SCc2ncc(C(C)(C)C)o2)s1)c1ccccc1 has pIC50 that meets 7 or exceeds it?
Result string: satisfied

----------
- tested-system: Protein kinase C epsilon type (Homo sapiens, UniProt Q02156)
- Sequence (Q02156 whole entry): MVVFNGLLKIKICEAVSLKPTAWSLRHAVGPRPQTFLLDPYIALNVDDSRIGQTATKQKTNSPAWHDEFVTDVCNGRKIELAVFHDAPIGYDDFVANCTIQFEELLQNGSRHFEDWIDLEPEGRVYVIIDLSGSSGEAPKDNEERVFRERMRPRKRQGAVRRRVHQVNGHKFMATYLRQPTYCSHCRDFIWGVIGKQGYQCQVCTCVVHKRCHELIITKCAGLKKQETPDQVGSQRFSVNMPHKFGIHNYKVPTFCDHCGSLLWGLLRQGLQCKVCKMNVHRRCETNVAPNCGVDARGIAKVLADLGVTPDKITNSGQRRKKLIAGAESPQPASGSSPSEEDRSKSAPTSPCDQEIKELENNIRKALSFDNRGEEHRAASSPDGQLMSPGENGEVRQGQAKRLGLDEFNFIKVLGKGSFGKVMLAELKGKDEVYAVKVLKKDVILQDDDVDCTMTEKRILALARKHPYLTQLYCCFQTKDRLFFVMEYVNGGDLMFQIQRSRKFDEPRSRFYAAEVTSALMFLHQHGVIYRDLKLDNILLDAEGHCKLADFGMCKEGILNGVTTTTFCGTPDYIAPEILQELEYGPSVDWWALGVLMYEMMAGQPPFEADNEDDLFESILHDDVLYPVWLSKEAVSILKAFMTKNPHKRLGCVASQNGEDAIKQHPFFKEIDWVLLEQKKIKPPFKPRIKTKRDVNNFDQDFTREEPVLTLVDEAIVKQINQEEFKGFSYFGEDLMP
Parameter: IC50. Scope: all listed entries.
Give a bare numeral; the unit µM is implied.

# molecule, IC50 / µM
data = [
    ("CN1CC[C@H](c2c(O)cc(O)c3c(=O)cc(-c4ccccc4Cl)oc23)[C@H](O)C1 [ALVOCIDIB]", 0.48),
]

Here is the next item to consider.
Query string: Lookup: IC50 / Protein kinase C epsilon type (Homo sapiens, UniProt Q02156) / CC(C)(C)c1cnc(CSc2cnc(NC(=O)Cc3ccc(CNC(CO)CO)cc3)s2)o1
Result string: 5.6

----------
Parameter: pIC50. Scope: all listed entries.
- tested-system: Cyclin-dependent kinase 2/cyclin E (Homo sapiens, UniProt P24941)
- measurement-description: Inhibitory activity against baculovirus expressed Cyclin dependent kinase 2-cyclinE
- Format: protein-complex assay
On this scale, pIC50 is minus log10 of a concentration expressed in M (mol/L).

Worked cases, pIC50 given:
# smiles-representation, readout-type, result-value
data = [
    ("CC(C)(C)C(=O)Nc1ncc(SCc2ncc(C(C)(C)C)o2)s1", "pIC50", 7.77),
    ("CC(=O)Nc1ncc(SCc2ncc(C(C)(C)C)o2)s1", "pIC50", 8.30),
    ("CC(=O)Nc1ncc(SCc2ncc(CC3CCCCC3)o2)s1", "pIC50", 8.40),
    ("CCc1cnc(CSc2cnc(NC(C)=O)s2)o1", "pIC50", 7.70),
]

Query string: Need pIC50 of CC(=O)Nc1ncc(SCC(=O)CC(C)(C)C)s1 , thanks.
Result string: 5.74

Query string: Need pIC50 of C[C@@H](C(=O)Nc1ncc(SCc2ncc(C(C)(C)C)o2)s1)c1ccccc1 , thanks.
Result string: 8.22

Query string: Need pIC50 of CC(=O)Nc1ncc(SCc2ncc(C)o2)s1 , thanks.
Result string: 7.05

Query string: Need pIC50 of CC(=O)Nc1ncc(SCCc2ccccc2)s1 , thanks.
Result string: 4.90

----------
Target protein (sequence): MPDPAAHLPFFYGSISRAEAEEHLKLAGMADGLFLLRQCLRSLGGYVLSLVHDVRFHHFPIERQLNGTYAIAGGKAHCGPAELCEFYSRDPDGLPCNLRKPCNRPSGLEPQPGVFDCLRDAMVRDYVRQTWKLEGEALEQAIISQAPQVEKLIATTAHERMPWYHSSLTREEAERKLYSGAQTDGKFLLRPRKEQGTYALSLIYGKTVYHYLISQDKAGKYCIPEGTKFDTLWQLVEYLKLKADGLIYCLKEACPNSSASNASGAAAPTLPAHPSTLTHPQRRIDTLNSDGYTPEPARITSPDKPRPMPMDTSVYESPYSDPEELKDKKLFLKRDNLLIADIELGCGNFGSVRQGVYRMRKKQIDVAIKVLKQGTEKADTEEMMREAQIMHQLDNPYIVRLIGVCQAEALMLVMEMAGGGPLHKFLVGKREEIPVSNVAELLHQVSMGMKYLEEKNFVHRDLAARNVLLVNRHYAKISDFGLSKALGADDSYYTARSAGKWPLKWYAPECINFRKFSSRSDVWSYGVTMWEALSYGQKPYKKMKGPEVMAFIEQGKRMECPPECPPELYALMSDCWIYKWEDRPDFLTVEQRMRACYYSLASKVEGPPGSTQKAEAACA
Parameter: IC50. Scope: all listed entries.

# compound, readout-type, result-value
measured = [
    ("CC(C)(C)c1cnc(CSc2cnc(NC(=O)Cc3ccc(CNC(CO)CO)cc3)s2)o1", "IC50", "> 50 µM"),
]

Here is the next item to consider.
Query string: Need IC50 of CN1CC[C@H](c2c(O)cc(O)c3c(=O)cc(-c4ccccc4Cl)oc23)[C@H](O)C1 [ALVOCIDIB] , thanks.
Result string: > 50 µM

----------
// IC50 collected for Tyrosine-protein kinase ITK/TSK (Homo sapiens, UniProt Q08881)
Give a bare numeral; the unit µM is implied.

# molecule, IC50 (µM)
rows = [
    ("CN1CC[C@H](c2c(O)cc(O)c3c(=O)cc(-c4ccccc4Cl)oc23)[C@H](O)C1 [ALVOCIDIB]", 14.8),
]

Here is the next item to consider.
Query string: Lookup: IC50 / Tyrosine-protein kinase ITK/TSK (Homo sapiens, UniProt Q08881) / CC(C)(C)c1cnc(CSc2cnc(NC(=O)Cc3ccc(CNC(CO)CO)cc3)s2)o1
Result string: 29
